Reference for the values: patent US6930203B2

# TEST SUMMARY: Solvent scope of N,N′-dialkylaldaramides (1%) or N,N′-dialkylpentaramides (1%): gelation/solubility behaviour in solvents
# Assay type: physicochemical
# Design: key: g = gelation; s = soluble; p = precipitates; c = crystallizes; ns = not soluble; v = viscous; g* = unstable gel, precipitates; cg = crystalline gel
# CONDITION SET: 1% gelling agent; Toluene
QUANTITY NAME: Gelation/solubility behaviour in Toluene

Task item: Can you share its Gelation/solubility behaviour in Toluene? I mean this molecule: O=C(NC1CCCCCCCCCCC1)[C@@H](O)[C@H](O)[C@H](O)[C@@H](O)C(=O)NC1CCCCCCCCCCC1 [Example 17, dicyclododecyl galactaramide]
Reply: ns

Task item: Can you share its Gelation/solubility behaviour in Toluene? I mean this molecule: CCCCCCCCNC(=O)[C@@H](O)[C@@H](O)[C@H](O)[C@@H](O)C(=O)NCCCCCCCC [Example 8, dioctyl D-glucaramide]
Reply: ns

Task item: Can you share its Gelation/solubility behaviour in Toluene? I mean this molecule: CCCCCCCCCCCCNC(=O)[C@@H](O)[C@H](O)[C@H](O)[C@@H](O)C(=O)NCCCCCCCCCCCC [Example 14, didodecyl galactaramide]
Reply: ns

Task item: Can you share its Gelation/solubility behaviour in Toluene? I mean this molecule: CCCCNC(=O)[C@@H](O)[C@H](O)[C@H](O)[C@@H](O)C(=O)NCCCC [Example 3, dibutyl galactaramide]
Reply: ns

Task item: Can you share its Gelation/solubility behaviour in Toluene? I mean this molecule: CCCCCCCCCCCCNC(=O)[C@@H](O)[C@@H](O)[C@H](OC)[C@@H](O)C(=O)NCCCCCCCCCCCC [Example 21, 3-O-methyl-didodecyl D-glucaramide]
Reply: p

More entries:
Task item: Can you share its Gelation/solubility behaviour in Toluene? I mean this molecule: `CCCCNC(=O)[C@@H](O)[C@@H](O)[C@H](O)[C@@H](O)C(=O)NCCCC`
Reply: ns

Task item: Can you share its Gelation/solubility behaviour in Toluene? I mean this molecule: O=C(NC1CCCCCCCCCCC1)[C@@H](O)[C@@H](O)[C@H](O)[C@@H](O)C(=O)NC1CCCCCCCCCCC1 [Example 15, dicyclododecyl D-glucaramide]
Reply: g

Task item: Can you share its Gelation/solubility behaviour in Toluene? I mean this molecule: CCCCCCCCCCCCNC(=O)[C@@H](O)[C@@H](O)[C@H](O)[C@H](O)C(=O)NCCCCCCCCCCCC [Example 13, didodecyl D-mannaramide]
Reply: ns

Task item: Can you share its Gelation/solubility behaviour in Toluene? I mean this molecule: CC(C)=CCCC(C)CCNC(=O)[C@@H](O)[C@@H](O)[C@H](O)[C@@H](O)C(=O)NCCC(C)CCC=C(C)C (stereo partly drawn) [Example 11, dicitronellyl D-glucaramide]
Reply: p

Task item: Can you share its Gelation/solubility behaviour in Toluene? I mean this molecule: O=C(NC1CCCCC1)[C@@H](O)[C@@H](O)[C@@H](O)C(=O)NC1CCCCC1 [Example 4, dicyclohexyl D-ribaramide]
Reply: p

Task item: Can you share its Gelation/solubility behaviour in Toluene? I mean this molecule: CCCCNC(=O)[C@@H](O)[C@@H](O)[C@H](O)[C@H](O)C(=O)NCCCC [Example 2, dibutyl D-mannaramide]
Reply: Ns

Task item: Can you share its Gelation/solubility behaviour in Toluene? I mean this molecule: CO[C@@H]([C@H](O)[C@H](O)C(=O)NC1CCCCC1)[C@@H](O)C(=O)NC1CCCCC1 [Example 20, 3-O-methyl-dicyclohexyl D-glucaramide]
Reply: p
